System: HCT-116
measurement_description: Anticancer activity against Homo sapiens (human) HCT116 cells after 48 hr by SRB assay
Format: functional
setup_conditions: HCT-116, 48 h, read-out: LC50 (the source's name)
measurement_kind: CC50

Some solved entries appear below for comparison.
smiles_repr	CC50
COc1ccc(OC)c(/C=C/C(=O)N/N=C/c2ccccc2)c1	67.2 µM
COc1ccc(OC)c(/C=C/c2nnc(S)n2-c2ccc(Cl)cc2)c1	> 100 µM
COc1ccc(OC)c(/C=C/C(=O)N/N=C/c2ccc(Cl)cc2)c1	> 100 µM

Then this compound:
Note to self: CC50 of `COc1ccc(OC)c(/C=C/c2nnc(Nc3ccc(Cl)cc3)o2)c1` with HCT-116 was > 100 µM

* * *

Test system: M14
measurement_description: Anticancer activity against Homo sapiens (human) M14 cells after 48 hr by SRB assay
Assay type: functional
setup_conditions: M14, 48 h
measurement_kind: TGI (µM)
Numbers only, in µM.

smiles_repr	TGI, µM
COc1ccc(OC)c(/C=C/C(=O)N/N=C/c2ccccc2)c1	6.77

Then this compound:
Entry `COc1ccc(OC)c(/C=C/C(=O)N/N=C/c2ccc(Cl)cc2)c1` ; TGI = 6.7

* * *

Test system: MDA-MB-468
measurement_description: Anticancer activity against Homo sapiens (human) MDA-MB-468 cells after 48 hr by SRB assay
Assay type: functional
setup_conditions: MDA-MB-468, 48 h
measurement_kind: GI50 (nM)
One number for each entry, in nM.

smiles_repr	test_system	GI50, nM
COc1ccc(OC)c(/C=C/C(=O)N/N=C/c2ccccc2)c1	MDA-MB-468	1960
COc1ccc(OC)c(/C=C/c2nnc(Nc3ccc(Cl)cc3)o2)c1	MDA-MB-468	16400
COc1ccc(OC)c(/C=C/C(=O)N/N=C/c2ccc(Cl)cc2)c1	MDA-MB-468	142

Then this molecule:
Note to self: GI50 of `COc1ccc(OC)c(/C=C/c2nnc(S)n2-c2ccc(Cl)cc2)c1` with MDA-MB-468 was 3510

* * *

Assign TGI to each entry below.
Tested on: Hs-578T
measurement_description: Anticancer activity against Homo sapiens (human) Hs 578T cells after 48 hr by SRB assay
Format: functional

Dear reader, for each entry below, please note its TGI.
1. COc1ccc(OC)c(/C=C/c2nnc(S)n2-c2ccc(Cl)cc2)c1
2. COc1ccc(OC)c(/C=C/c2nnc(Nc3ccc(Cl)cc3)o2)c1
3. COc1ccc(OC)c(/C=C/C(=O)N/N=C/c2ccc(Cl)cc2)c1

Solution:
["> 100 µM", "8.01 µM", "> 100 µM"]

Entry `COc1ccc(OC)c(/C=C/C(=O)N/N=C/c2ccccc2)c1` ; TGI = > 100 µM

* * *

Tested on: M14
measurement_description: Growth inhibition of Homo sapiens (human) M14 cells at 10 uM after 48 hr by SRB assay
Format: functional
setup_conditions: M14, 48 h, read-out: GI
Assign inhibition of growth at 10 µM to each entry below.
Answers are plain numbers, in %.

Some solved entries appear below for comparison.
smiles_repr	test_system	measurement_kind	scale_unit	observed_measurement
COc1ccc(OC)c(/C=C/c2nnc(SC)n2-c2ccc(Cl)cc2)c1	M14	inhibition of growth at 10 µM	%	40
COc1ccc(OC)c(/C=C/c2nnc(S)n2-c2ccc(Cl)cc2)c1	M14	inhibition of growth at 10 µM	%	69
COc1ccc(OC)c(/C=C/C(=O)N/N=C/c2ccc(Cl)cc2)c1	M14	inhibition of growth at 10 µM	%	134

Note to self: inhibition of growth at 10 µM of `COc1ccc(OC)c(/C=C/C(=O)N/N=C/c2ccccc2)c1` with M14 was 72.2
